// data source = ChEMBL document CHEMBL1201862

// AC50 collected for Cytochrome P450 2C9 (Homo sapiens, UniProt P11712)

In: Read the entry Cc1ccc(S(=O)(=O)Oc2ccc(/C=C(/NC(=O)c3ccccc3)C(=O)Nc3ccccc3)cc2)cc1 and write its reported AC50.
Out: 0.316 µM (inconclusive)

In: Read the entry C=CCNC(S)=NNc1ncnc2sc3c(c12)CC(C)(C)OC3 and write its reported AC50.
Out: 8.91 µM (inconclusive)

In: Read the entry Cc1nnc(-c2cnn(-c3ccccc3)c2N)n1Cc1ccccc1 and write its reported AC50.
Out: 39.8 µM (inconclusive)

In: Read the entry CC(C)(Oc1ccc([C@@H]2CC2(Cl)Cl)cc1)C(=O)O and write its reported AC50.
Out: 31.6 µM (inconclusive)

----------
biological target: UniProt P9WHJ3; test: Fluorescence Cell-Free Homogeneous Dose Retest to Identify Inhibitors of RecA-Intein Splicing Activity. [Related pubchem assays (depositor defined):AID2097, AID2223, AID489010, AID492950]; type: functional
Please go through the items and note down their EC50.

In: Read the entry O=C1CCCC(O)=C1C(C#Cc1ccccc1)C1=C(O)CCCC1=O and write its reported EC50.
Out: > 380 µM (inconclusive)

In: Read the entry CCCCOc1ccc(C(=O)C(CN2CCOCC2)c2ccccc2)cc1 (stereo not drawn) and write its reported EC50.
Out: 26.7 µM (inconclusive)

In: Read the entry CCC(c1nnnn1Cc1ccco1)N(Cc1cc2cc(OC)ccc2nc1O)C1CCCCC1 (stereo not drawn) and write its reported EC50.
Out: 40.2 µM (inconclusive)

----------
target: Heat shock factor protein 1 (Mus musculus); assay: enhancement of HSF1-driven luciferase signal – cell-based, NIH3T3, luminescence, dose retest, confirmation (AID 435004); type: functional;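 note: stress induced by proteasome inhibitor MG132 added 30 min after compound; luciferase reporter driven by HSF1 response element in NIH3T3 cells; actives raise luminescence as potentiators of the MG132 stress response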
Sequence (P38532 whole entry): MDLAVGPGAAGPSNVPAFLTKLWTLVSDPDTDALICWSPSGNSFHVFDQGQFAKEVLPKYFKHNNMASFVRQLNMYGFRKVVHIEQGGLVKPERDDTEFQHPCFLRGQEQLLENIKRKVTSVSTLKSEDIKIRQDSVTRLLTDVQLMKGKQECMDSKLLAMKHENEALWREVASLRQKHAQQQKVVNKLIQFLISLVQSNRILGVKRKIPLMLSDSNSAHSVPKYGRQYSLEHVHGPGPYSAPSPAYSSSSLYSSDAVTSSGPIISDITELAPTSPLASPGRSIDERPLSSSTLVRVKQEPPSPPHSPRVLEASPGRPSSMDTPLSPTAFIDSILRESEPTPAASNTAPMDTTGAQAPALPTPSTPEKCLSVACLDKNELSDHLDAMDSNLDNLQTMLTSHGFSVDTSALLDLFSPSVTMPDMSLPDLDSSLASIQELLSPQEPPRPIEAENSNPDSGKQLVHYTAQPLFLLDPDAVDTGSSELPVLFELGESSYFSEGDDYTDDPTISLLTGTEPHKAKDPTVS
Activity calls are given as the source filed them.
Please go through the items and note down their EC50.

In: Read the entry CCn1c(Cl)c(C=O)s/c1=N\S(=O)(=O)c1ccccc1 and write its reported EC50.
Out: > 260 µM (inconclusive)

In: Read the entry Cc1cccc(/C=C/C(=O)c2ccc([N+](=O)[O-])o2)c1 and write its reported EC50.
Out: 3.43 µM (inconclusive)

In: Read the entry COc1ccc(NC(=O)NNC(=O)c2cc3occc3n2C)c(OC)c1 and write its reported EC50.
Out: > 260 µM (inactive)

In: Read the entry Cn1c(SCC(=O)NNC(=O)Nc2ccc(Cl)cc2)nnc1-c1ccccc1 and write its reported EC50.
Out: > 260 µM (inactive)

In: Read the entry CCC(c1nnnn1Cc1ccco1)N(Cc1cc2cc(OC)ccc2nc1O)C1CCCCC1 (stereo unspecified) and write its reported EC50.
Out: 10.7 µM (active)

In: Read the entry Cc1ccc(CN(C)C(=O)C2CCC(=O)N(CCc3ccccc3)C2)o1 (stereo unspecified) and write its reported EC50.
Out: > 260 µM (inactive)

----------
molecular target: Calpain-2 catalytic subunit (Sus scrofa, UniProt P43367); test: m-calpain protease blockers, concentration series – biochemical, fluorogenic peptide substrate, dose response (AID 1420); type: functional
Sequence (P43367 whole entry): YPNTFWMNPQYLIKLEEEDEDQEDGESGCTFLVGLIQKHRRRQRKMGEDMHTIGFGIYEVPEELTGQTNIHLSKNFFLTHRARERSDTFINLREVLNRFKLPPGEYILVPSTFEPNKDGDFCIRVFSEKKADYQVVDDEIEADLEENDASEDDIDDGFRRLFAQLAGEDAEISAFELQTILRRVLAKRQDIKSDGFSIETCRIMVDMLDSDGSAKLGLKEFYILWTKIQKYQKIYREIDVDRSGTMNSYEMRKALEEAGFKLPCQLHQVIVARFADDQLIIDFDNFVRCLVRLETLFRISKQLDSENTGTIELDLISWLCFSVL
Please go through the items and note down their IC50.

In: Read the entry CC(=O)c1ccc(N2CCN(C(=O)c3cccc(Oc4ccccc4)c3)CC2)cc1 and write its reported IC50.
Out: 12.3 µM (not active)

In: Read the entry O=C(c1ccc(COc2ccc(Cl)cc2)cc1)N1CCCCC1 and write its reported IC50.
Out: 10.4 µM (not active)

In: Read the entry O=C(NCc1cccnc1)c1ccccc1CCc1ccccc1 and write its reported IC50.
Out: 18.8 µM (not active)
